# Target Or Test System: ROCK1 (human) (UniProt Q13464)
# Sequence (Q13464 whole entry, looked up): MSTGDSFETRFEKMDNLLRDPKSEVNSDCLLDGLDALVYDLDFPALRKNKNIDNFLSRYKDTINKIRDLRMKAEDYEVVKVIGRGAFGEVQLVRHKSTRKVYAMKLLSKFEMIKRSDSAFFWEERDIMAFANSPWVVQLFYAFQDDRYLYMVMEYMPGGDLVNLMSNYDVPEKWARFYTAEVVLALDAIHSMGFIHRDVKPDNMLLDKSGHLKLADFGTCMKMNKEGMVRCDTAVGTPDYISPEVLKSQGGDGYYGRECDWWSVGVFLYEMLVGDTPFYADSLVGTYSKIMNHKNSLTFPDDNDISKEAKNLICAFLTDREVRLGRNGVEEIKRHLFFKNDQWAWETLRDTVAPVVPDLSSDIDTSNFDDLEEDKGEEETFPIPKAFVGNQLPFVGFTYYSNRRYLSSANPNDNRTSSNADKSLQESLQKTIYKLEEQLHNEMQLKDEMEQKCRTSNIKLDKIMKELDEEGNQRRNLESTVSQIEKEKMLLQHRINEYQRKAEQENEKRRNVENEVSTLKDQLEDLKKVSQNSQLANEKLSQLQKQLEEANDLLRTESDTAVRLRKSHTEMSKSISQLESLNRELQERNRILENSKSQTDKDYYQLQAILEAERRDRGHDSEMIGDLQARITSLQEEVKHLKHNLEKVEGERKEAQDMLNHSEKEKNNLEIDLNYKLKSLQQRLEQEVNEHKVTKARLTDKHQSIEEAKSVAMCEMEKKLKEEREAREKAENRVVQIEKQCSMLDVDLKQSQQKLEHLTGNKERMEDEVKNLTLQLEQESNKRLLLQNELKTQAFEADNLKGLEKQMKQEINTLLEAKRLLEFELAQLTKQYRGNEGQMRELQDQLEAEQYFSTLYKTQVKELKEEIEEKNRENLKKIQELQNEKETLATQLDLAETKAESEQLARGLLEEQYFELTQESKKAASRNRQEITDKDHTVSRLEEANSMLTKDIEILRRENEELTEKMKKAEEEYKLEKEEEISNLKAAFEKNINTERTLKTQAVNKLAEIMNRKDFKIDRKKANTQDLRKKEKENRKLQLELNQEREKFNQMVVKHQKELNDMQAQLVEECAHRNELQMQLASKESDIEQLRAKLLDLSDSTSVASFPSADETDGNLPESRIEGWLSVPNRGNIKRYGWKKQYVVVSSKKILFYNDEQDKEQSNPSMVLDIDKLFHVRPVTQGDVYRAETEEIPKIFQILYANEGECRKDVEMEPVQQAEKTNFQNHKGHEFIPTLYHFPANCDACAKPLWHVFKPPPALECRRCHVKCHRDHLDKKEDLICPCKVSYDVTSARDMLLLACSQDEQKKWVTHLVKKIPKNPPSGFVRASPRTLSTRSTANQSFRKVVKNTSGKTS
# Experimental Details: KINOMEscan competition binding
# Details: compound 10.0 µM
kinase still bound, per cent of control: recorded values

{"columns": ["Compound", "kinase still bound, per cent of control / %"],
 "data": [
  ["COc1cc2ncnc(Nc3cccc(Cl)c3)c2cc1OC", 41],
  ["CCCS(=O)(=O)Nc1ccc(F)c(C(=O)c2c[nH]c3ncc(Cl)cc23)c1F", 77],
  ["COc1cc2c(Nc3ccc(NC(=O)c4ccccc4)cc3)ncnc2cc1OCCCN1CCOCC1", 98],
  ["CC(=O)c1c(C)c2cnc(Nc3ccc(N4CCNCC4)cn3)nc2n(C2CCCC2)c1=O", 30],
  ["O=c1[nH]c2ccccc2n1C1CCN(Cc2ccc(-c3nc4cc5[nH]cnc5cc4nc3-c3ccccc3)cc2)CC1", 66],
  ["CCN(CCO)CCCOc1ccc2c(Nc3cc(CC(=O)Nc4cccc(F)c4)[nH]n3)ncnc2c1", 67],
  ["CC1=C(C(=O)Nc2cc3cn[nH]c3cc2F)C(c2ccc(C(F)(F)F)cc2)CC(=O)N1 (centres undefined)", 0.3],
  ["Cc1cn(-c2cc(C(=O)Nc3ccc(C)c(NC(=O)c4ccno4)c3)cc(C(F)(F)F)c2)cn1", 100],
  ["N#Cc1cc(-c2ccnc(Nc3ccc(-n4cnc(-c5cccnc5)n4)cc3)n2)cc(N2CCOCC2)c1", 52]
]}

----------
# Target Or Test System: TTK (human)
# Experimental Details: KINOMEscan competition binding
# Details: compound 10.0 µM
// NB: equality with 50% counts as condition not met; only kinase still bound, per cent of control strictly below is condition met

{"columns": ["Compound", "Group"],
 "data": [
  ["CCN1CCN(Cc2ccc(NC(=O)c3ccc(C)c(/C=C/c4cnc5[nH]ccc5c4OC)c3)cc2C(F)(F)F)CC1", "condition met"],
  ["O=c1[nH]c2ccccc2n1C1CCN(Cc2ccc(-c3nc4cc5[nH]cnc5cc4nc3-c3ccccc3)cc2)CC1", "condition not met"],
  ["N#C/C(=C1/Nc2ccccc2S1)c1ccnc(NCCc2cccnc2)n1", "condition not met"],
  ["CCc1nc(-c2cccc(C)c2)c(-c2ccnc(NC(=O)c3ccccc3)c2)s1", "condition not met"],
  ["CC1=C(C(=O)Nc2cc3cn[nH]c3cc2F)C(c2ccc(C(F)(F)F)cc2)CC(=O)N1 (stereo not drawn)", "condition not met"],
  ["CC(=O)c1c(C)c2cnc(Nc3ccc(N4CCNCC4)cn3)nc2n(C2CCCC2)c1=O", "condition met"],
  ["C=CC(=O)Nc1ccc(C(=O)c2sc(Nc3ccc(N4CCN(C)CC4)cc3OC)nc2N)cc1", "condition met"],
  ["N#Cc1cc(-c2ccnc(Nc3ccc(-n4cnc(-c5cccnc5)n4)cc3)n2)cc(N2CCOCC2)c1", "condition not met"],
  ["Cc1cn(-c2cc(C(=O)Nc3ccc(C)c(NC(=O)c4ccno4)c3)cc(C(F)(F)F)c2)cn1", "condition not met"],
  ["COc1cc(N2CCC(C(N)=O)CC2)ccc1Nc1nc(N)c(Cl)c(Nc2ccccc2S(=O)(=O)C(C)C)n1", "condition met"],
  ["CCOc1cc(N2CCC(O)CC2)ccc1Nc1ncc2c(n1)N(C)c1ccccc1C(=O)N2C", "condition met"],
  ["COc1ccc(N(C(=O)Oc2cc(C(=O)Nc3cccc(C(F)(F)F)c3)ccc2C)c2ccnc(Nc3ccc(N4CCN(C)CC4)cc3)n2)c(OC)c1", "condition not met"],
  ["COc1cc2c(Nc3ccc(NC(=O)c4ccccc4)cc3)ncnc2cc1OCCCN1CCOCC1", "condition met"],
  ["COc1cc2ncnc(Nc3cccc(Cl)c3)c2cc1OC", "condition not met"],
  ["COc1cc(C)c(Sc2cnc(NC(=O)c3ccc(CNC(C)C(C)C)cc3)s2)cc1C(=O)N1CCN(C(C)=O)CC1 (stereo not drawn)", "condition not met"],
  ["CCCS(=O)(=O)Nc1ccc(F)c(C(=O)c2c[nH]c3ncc(Cl)cc23)c1F", "condition not met"],
  ["CNC(=O)Nc1ccc(-c2nc(N3CC4CCC(C3)O4)c3cnn(C4CCC5(CC4)OCCO5)c3n2)cc1", "condition not met"]
]}

----------
kinase still bound, per cent of control: recorded values
# Target Or Test System: CSNK1E (human)
# Experimental Details: KINOMEscan competition binding
# Details: compound 10.0 µM

{"columns": ["Molecule", "Target Or Test System", "Unit Annotation", "kinase still bound, per cent of control"],
 "data": [
  ["Cc1cn(-c2cc(C(=O)Nc3ccc(C)c(NC(=O)c4ccno4)c3)cc(C(F)(F)F)c2)cn1", "CSNK1E (human)", "%", 100],
  ["N#Cc1cc(-c2ccnc(Nc3ccc(-n4cnc(-c5cccnc5)n4)cc3)n2)cc(N2CCOCC2)c1", "CSNK1E (human)", "%", 95],
  ["O=c1[nH]c2ccccc2n1C1CCN(Cc2ccc(-c3nc4cc5[nH]cnc5cc4nc3-c3ccccc3)cc2)CC1", "CSNK1E (human)", "%", 15],
  ["CCCS(=O)(=O)Nc1ccc(F)c(C(=O)c2c[nH]c3ncc(Cl)cc23)c1F", "CSNK1E (human)", "%", 60],
  ["CCN(CCO)CCCOc1ccc2c(Nc3cc(CC(=O)Nc4cccc(F)c4)[nH]n3)ncnc2c1", "CSNK1E (human)", "%", 100],
  ["CCc1nc(-c2cccc(C)c2)c(-c2ccnc(NC(=O)c3ccccc3)c2)s1", "CSNK1E (human)", "%", 0.05],
  ["C=CC(=O)Nc1ccc(C(=O)c2sc(Nc3ccc(N4CCN(C)CC4)cc3OC)nc2N)cc1", "CSNK1E (human)", "%", 66],
  ["COc1cc2c(Nc3ccc(NC(=O)c4ccccc4)cc3)ncnc2cc1OCCCN1CCOCC1", "CSNK1E (human)", "%", 80],
  ["COc1cc2ncnc(Nc3cccc(Cl)c3)c2cc1OC", "CSNK1E (human)", "%", 32]
]}

----------
kinase still bound, per cent of control: recorded values
# Target Or Test System: NEK3 (human) (UniProt P51956)
# Sequence (P51956 whole entry, looked up): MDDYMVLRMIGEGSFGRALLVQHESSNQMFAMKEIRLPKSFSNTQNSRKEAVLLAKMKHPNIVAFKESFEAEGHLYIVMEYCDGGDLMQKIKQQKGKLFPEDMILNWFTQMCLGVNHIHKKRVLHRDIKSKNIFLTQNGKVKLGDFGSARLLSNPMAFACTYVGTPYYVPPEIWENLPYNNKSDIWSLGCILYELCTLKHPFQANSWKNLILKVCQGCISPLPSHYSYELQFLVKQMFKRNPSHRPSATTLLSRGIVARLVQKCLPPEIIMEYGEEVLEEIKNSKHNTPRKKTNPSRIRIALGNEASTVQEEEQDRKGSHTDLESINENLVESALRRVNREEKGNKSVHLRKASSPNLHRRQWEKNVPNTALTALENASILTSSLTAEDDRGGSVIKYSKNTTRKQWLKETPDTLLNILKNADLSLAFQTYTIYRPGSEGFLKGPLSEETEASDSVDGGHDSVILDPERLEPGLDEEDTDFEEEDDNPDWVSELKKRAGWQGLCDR
# Experimental Details: KINOMEscan competition binding
# Details: compound 10.0 µM

{"columns": ["Molecule", "kinase still bound, per cent of control / %"],
 "data": [
  ["CCCS(=O)(=O)Nc1ccc(F)c(C(=O)c2c[nH]c3ncc(Cl)cc23)c1F", 69],
  ["N#C/C(=C1/Nc2ccccc2S1)c1ccnc(NCCc2cccnc2)n1", 58],
  ["CCN(CCO)CCCOc1ccc2c(Nc3cc(CC(=O)Nc4cccc(F)c4)[nH]n3)ncnc2c1", 100],
  ["CCc1nc(-c2cccc(C)c2)c(-c2ccnc(NC(=O)c3ccccc3)c2)s1", 100],
  ["CCN1CCN(Cc2ccc(NC(=O)c3ccc(C)c(/C=C/c4cnc5[nH]ccc5c4OC)c3)cc2C(F)(F)F)CC1", 77],
  ["CNC(=O)Nc1ccc(-c2nc(N3CC4CCC(C3)O4)c3cnn(C4CCC5(CC4)OCCO5)c3n2)cc1", 100],
  ["COc1cc2ncnc(Nc3cccc(Cl)c3)c2cc1OC", 78],
  ["N#Cc1cc(-c2ccnc(Nc3ccc(-n4cnc(-c5cccnc5)n4)cc3)n2)cc(N2CCOCC2)c1", 0.75],
  ["COc1cc2c(Nc3ccc(NC(=O)c4ccccc4)cc3)ncnc2cc1OCCCN1CCOCC1", 100]
]}

----------
# Target Or Test System: LATS2 (human) (UniProt Q9NRM7)
# Sequence (Q9NRM7 whole entry, looked up): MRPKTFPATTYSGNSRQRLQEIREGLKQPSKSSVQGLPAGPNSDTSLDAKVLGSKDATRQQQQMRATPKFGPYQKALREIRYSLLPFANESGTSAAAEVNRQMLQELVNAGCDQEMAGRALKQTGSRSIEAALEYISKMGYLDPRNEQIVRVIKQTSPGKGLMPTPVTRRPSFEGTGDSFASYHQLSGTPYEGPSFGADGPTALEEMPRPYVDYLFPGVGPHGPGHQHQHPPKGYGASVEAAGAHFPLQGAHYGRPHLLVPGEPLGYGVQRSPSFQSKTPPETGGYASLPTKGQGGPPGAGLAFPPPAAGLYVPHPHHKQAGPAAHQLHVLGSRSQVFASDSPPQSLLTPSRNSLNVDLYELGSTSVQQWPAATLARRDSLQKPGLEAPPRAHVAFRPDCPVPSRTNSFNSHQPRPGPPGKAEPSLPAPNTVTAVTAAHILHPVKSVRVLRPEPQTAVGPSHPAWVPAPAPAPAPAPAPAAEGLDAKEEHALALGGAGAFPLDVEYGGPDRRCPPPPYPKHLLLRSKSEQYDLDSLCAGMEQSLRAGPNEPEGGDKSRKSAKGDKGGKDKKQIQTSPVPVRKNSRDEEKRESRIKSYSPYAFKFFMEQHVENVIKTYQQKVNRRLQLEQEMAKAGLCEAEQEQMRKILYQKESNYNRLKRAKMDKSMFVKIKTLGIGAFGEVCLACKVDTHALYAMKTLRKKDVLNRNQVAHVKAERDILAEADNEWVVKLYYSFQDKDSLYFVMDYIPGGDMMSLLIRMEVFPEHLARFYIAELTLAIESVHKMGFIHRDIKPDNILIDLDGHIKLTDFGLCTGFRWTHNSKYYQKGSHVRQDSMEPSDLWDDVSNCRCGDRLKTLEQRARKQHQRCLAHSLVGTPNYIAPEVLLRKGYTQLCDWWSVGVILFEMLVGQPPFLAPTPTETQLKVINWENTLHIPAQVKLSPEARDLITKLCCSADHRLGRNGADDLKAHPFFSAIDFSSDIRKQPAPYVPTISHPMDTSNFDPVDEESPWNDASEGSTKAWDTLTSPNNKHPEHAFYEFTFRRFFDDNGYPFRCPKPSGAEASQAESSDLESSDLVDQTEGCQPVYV
# Experimental Details: KINOMEscan competition binding
# Details: compound 10.0 µM

{"columns": ["Compound", "kinase still bound, per cent of control"],
 "data": [
  ["CCN1CCN(Cc2ccc(NC(=O)c3ccc(C)c(/C=C/c4cnc5[nH]ccc5c4OC)c3)cc2C(F)(F)F)CC1", "79%"],
  ["CCCS(=O)(=O)Nc1ccc(F)c(C(=O)c2c[nH]c3ncc(Cl)cc23)c1F", "86%"],
  ["N#Cc1cc(-c2ccnc(Nc3ccc(-n4cnc(-c5cccnc5)n4)cc3)n2)cc(N2CCOCC2)c1", "62%"],
  ["COc1cc2c(Nc3ccc(NC(=O)c4ccccc4)cc3)ncnc2cc1OCCCN1CCOCC1", "82%"],
  ["COc1ccc(N(C(=O)Oc2cc(C(=O)Nc3cccc(C(F)(F)F)c3)ccc2C)c2ccnc(Nc3ccc(N4CCN(C)CC4)cc3)n2)c(OC)c1", "100%"],
  ["N#C/C(=C1/Nc2ccccc2S1)c1ccnc(NCCc2cccnc2)n1", "92%"],
  ["CC1=C(C(=O)Nc2cc3cn[nH]c3cc2F)C(c2ccc(C(F)(F)F)cc2)CC(=O)N1 (stereo not drawn)", "10%"],
  ["C=CC(=O)Nc1ccc(C(=O)c2sc(Nc3ccc(N4CCN(C)CC4)cc3OC)nc2N)cc1", "100%"],
  ["CCN(CCO)CCCOc1ccc2c(Nc3cc(CC(=O)Nc4cccc(F)c4)[nH]n3)ncnc2c1", "52%"],
  ["COc1cc(N2CCC(C(N)=O)CC2)ccc1Nc1nc(N)c(Cl)c(Nc2ccccc2S(=O)(=O)C(C)C)n1", "100%"],
  ["COc1cc2ncnc(Nc3cccc(Cl)c3)c2cc1OC", "40%"],
  ["CCOc1cc(N2CCC(O)CC2)ccc1Nc1ncc2c(n1)N(C)c1ccccc1C(=O)N2C", "100%"],
  ["CNC(=O)Nc1ccc(-c2nc(N3CC4CCC(C3)O4)c3cnn(C4CCC5(CC4)OCCO5)c3n2)cc1", "76%"],
  ["Cc1cn(-c2cc(C(=O)Nc3ccc(C)c(NC(=O)c4ccno4)c3)cc(C(F)(F)F)c2)cn1", "100%"],
  ["COc1cc(C)c(Sc2cnc(NC(=O)c3ccc(CNC(C)C(C)C)cc3)s2)cc1C(=O)N1CCN(C(C)=O)CC1 (stereo not drawn)", "100%"],
  ["O=c1[nH]c2ccccc2n1C1CCN(Cc2ccc(-c3nc4cc5[nH]cnc5cc4nc3-c3ccccc3)cc2)CC1", "82%"],
  ["CC(=O)c1c(C)c2cnc(Nc3ccc(N4CCNCC4)cn3)nc2n(C2CCCC2)c1=O", "42%"],
  ["CCc1nc(-c2cccc(C)c2)c(-c2ccnc(NC(=O)c3ccccc3)c2)s1", "90%"]
]}

src = the kinase profiling compilation of Christmann-Franck et al. (2016)
